B1: NET1 (parent)
chain: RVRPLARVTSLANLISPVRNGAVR

# Variants of: B1
# measurement-description: protein stability index of a GFP-peptide fusion (GPS, HEK-293T) (PSI 1-6); higher = more stable;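 also: lentivirally expressed fusions sorted by FACS into six bins by GFP to DsRed ratio, PSI derived from sequencing read proportions per bin multiplied by bin number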
# conditions-used: c terminus: a fixed tail appended
property-label: protein stability index
Just the number, please, no unit after it.

>  <mutant-designation>
T9R

>  <protein stability index>
2.76

$$$$
>  <mutant-designation>
S10H

>  <protein stability index>
2.54

$$$$
>  <mutant-designation>
L11G

>  <protein stability index>
3.25

$$$$
>  <mutant-designation>
T9A

>  <protein stability index>
2.81

$$$$
>  <mutant-designation>
L11F

>  <protein stability index>
3.19

$$$$
>  <mutant-designation>
P4K

>  <protein stability index>
2.87

$$$$

Input line: Give the measured protein stability index for S16I
Output line: 2.44
